Cited source for all entries: patent US5124083A

- System: tracheas obtained from vitamin A-deficient hamsters
- measurement protocol: Hamster trachea organ culture assay (reversal of squamous metaplasia and keratinization)
- Format: cell-based
- measurement setup: Mesocricetus auratus; reversal of keratinization, vitamin A-deficient hamster trachea in culture; read-out: ED50, hamster trachea organ culture assay
quantity measured: EC50 (nM)

- compound: "COC(=O)/C=C(C)/C=C/C=C(C)/C=C/C1=C(C)C(=O)C(C)(C)CC1(C)C [Example 11, Methyl 3,3-Dimethyl-4-oxoretinoate]"
  EC50 [nM]: 0.3
- compound: "COC(=O)/C=C(C)/C=C/C=C(C)/C=C/C1=C(C)C(=O)C(Cc2ccccc2)CC1(C)C (stereo not drawn) [Example 9, Methyl 4-Oxo-3-(phenylmethyl)retinoate]"
  EC50 [nM]: 11

a = CC1=C(/C=C/C(C)=C/C=C/C(C)=C/C(=O)O)C(C)(C)CC(Cc2ccccc2)C1=O (stereo not drawn) [Example 21]
b = COC(=O)/C=C(C)/C=C/C=C(C)/C=C/C1=C(C)C(=O)C(C)CC1(C)C (stereo not drawn) [Example 2, Methyl 3-Methyl-4-oxoretinoate]
c = C#CCC1CC(C)(C)C(/C=C/C(C)=C/C=C/C(C)=C/C(=O)O)=C(C)C1=O (stereo not drawn) [Example 20]
d = CC1=C(/C=C/C(C)=C/C=C/C(C)=C/C(=O)O)C(C)(C)CC(C)C1=O (stereo not drawn) [Example 17, 3-Methyl-4-oxoretinoic Acid]
[in] Please order the records by their reported EC50, lowest number first. Ranked list of labels, please, in the requested order.
[out] c, d, b, a
(c: 0.2 nM, d: 2 nM, b: 4 nM, a: 11 nM)

---

- System: F9 Embryonal Carcinoma Cells
- measurement protocol: Induction of differentiation of F9 embryonal carcinoma cells (plasminogen activator release)
- Assay type: cell-based
- measurement setup: Mus musculus, 96 h; average of two determinations; 50% induction of differentiation, by release of plasminogen activator; 4 days; read-out: Differentiation of F9 Embryonal Carcinoma Cells ED50
- Experimental: Induction of differentiation of cancer cells is a potential mode of cancer chemoprevention. […] Elevated release of plasminogen activator by F9 cells in the presence of retinoids is a marker for differentiation. Induction of differentiation of F9 cells by several of the retinoids of this invention was evaluated, and the results are summarized in Table I (Example 24) as values of ED50. […] 50% induction of differentiation of the carcinoma cells as measured by th […]
quantity measured: EC50 (nM)
Express it in nM; write the number only.

[in] Answer with the recorded EC50 of CC1=C(/C=C/C(C)=C/C=C/C(C)=C/C(=O)O)C(C)(C)CC(C)(C)C1=O [Example 23, 3.3-Dimethyl-4-Oxoretinoic Acid] only.
[out] 0.23
